# SYSTEM UNDER TEST: Macrophage colony-stimulating factor 1 receptor (Homo sapiens, UniProt P07333)
# Sequence (P07333 whole entry): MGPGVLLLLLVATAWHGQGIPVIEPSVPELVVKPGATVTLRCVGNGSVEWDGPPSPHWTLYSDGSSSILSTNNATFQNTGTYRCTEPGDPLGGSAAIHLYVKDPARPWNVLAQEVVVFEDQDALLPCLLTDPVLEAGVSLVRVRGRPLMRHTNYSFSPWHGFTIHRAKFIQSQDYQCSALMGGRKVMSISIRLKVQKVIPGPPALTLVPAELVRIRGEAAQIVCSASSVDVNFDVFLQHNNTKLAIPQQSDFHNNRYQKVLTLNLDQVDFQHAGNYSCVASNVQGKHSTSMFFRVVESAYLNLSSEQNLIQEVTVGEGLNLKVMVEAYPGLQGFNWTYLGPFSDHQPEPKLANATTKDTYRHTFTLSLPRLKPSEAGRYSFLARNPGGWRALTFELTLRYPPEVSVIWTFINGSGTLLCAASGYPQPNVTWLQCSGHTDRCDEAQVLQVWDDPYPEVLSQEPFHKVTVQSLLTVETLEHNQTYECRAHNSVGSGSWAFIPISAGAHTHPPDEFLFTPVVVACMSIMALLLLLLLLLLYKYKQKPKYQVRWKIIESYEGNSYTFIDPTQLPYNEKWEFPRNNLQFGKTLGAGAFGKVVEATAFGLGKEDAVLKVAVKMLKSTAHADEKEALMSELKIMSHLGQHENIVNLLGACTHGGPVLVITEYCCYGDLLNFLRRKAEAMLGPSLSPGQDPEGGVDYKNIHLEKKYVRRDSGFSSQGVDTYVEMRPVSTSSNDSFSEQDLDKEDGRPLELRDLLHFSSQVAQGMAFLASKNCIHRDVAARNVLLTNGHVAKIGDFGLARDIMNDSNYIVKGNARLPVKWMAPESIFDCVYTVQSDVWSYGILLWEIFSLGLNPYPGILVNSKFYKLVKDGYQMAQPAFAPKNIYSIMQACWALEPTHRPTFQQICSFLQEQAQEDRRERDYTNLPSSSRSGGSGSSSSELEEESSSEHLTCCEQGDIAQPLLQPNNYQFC
pIC50: −log10 of the molar value.
ASSAY READOUT: pIC50

                        structure_as_smiles  measured
0  CC1(C)CC=C(c2cc([C@]3(O)CC[C@H](N4CCOCC4)CC3)ccc2NC(=O)c2nc(C#N)c[nH]2)CC1      8.47
